// reported solubility thermodynamic for each item listed
- ASSAY PROCEDURE: physchem
- STATED CONDITIONS: pH 7.4 buffer
Respond with the bare value in µM.

O=C(Nc1c(Cl)cncc1Cl)c1ccc(OC(F)F)c(OCC2CC2)c1	1.1
CCn1c2ccccc2c2cc(NC(C)=O)ccc21	5.6
O=C(N1CCC(c2ccncc2)CC1)N1CCN(S(=O)(=O)c2ccc(Cl)cc2)CC1	8.7
CC(=O)Nc1nc2c(s1)C(=O)NCCC2	1350
Cc1ncc(-c2ccnc(Nc3ccc(N4CCOCC4)cc3)n2)n1C(C)C	56.2

// recorded solubility thermodynamic for C[C@@H](Nc1ncnc2[nH]c(-c3ccc(O)cc3)cc12)c1ccccc1 : 28.8

Entry O=c1oc(-c2ccccc2)cc2ccccc12 — recorded solubility thermodynamic = 11.5

solubility thermodynamic measured on O=c1cc(-c2ccc(O)cc2)[nH]c2ccccc12 = 4.7

The compound identified as COc1cc(C(CO)CO)ccc1Nc1ncc(Cl)c(-c2cnc3ccccn23)n1 registered its solubility thermodynamic at 6.8

Memo: CN1CC(n2nccc2-c2cc(Cl)ccc2Oc2cc(F)c(S(=O)(=O)Nc3ncns3)cc2F)C1 , reported solubility thermodynamic: 47.9

GET /value?item= COc1cnc(Cl)c(Nc2ncnc3cc(OCCN4CCN(C(C)=O)CC4)cc(OC(C)C)c23)n1 &field=solubility thermodynamic returns 22.4

Entry under test: C[C@@H](c1ccc(-c2ccc(F)cc2F)cc1)N1CC[C@@](CCO)(c2ccc(F)cc2)OC1=O . Its solubility thermodynamic was 5.2

# solubility thermodynamic of Nc1nc(-c2ccc(Cl)cc2)cs1 = 83.2

Reported solubility thermodynamic of CC(c1ccccc1)n1cnc2ccccc2c1=O (centres undefined) : 468

get_value(item= CC(=O)Nc1ccc(CNc2[nH]nc3cccc(Oc4ccc(S(C)(=O)=O)cc4)c23)cc1 , readout=solubility thermodynamic) returns 4.3

Looking up CC(=O)Nc1nc(-c2ccccc2)ns1 , I see its solubility thermodynamic listed as 182

Looking up COc1cc2ncnc(Nc3cc(NC(=O)c4ccnc(N5CCOCC5)c4)ccc3C)c2cc1OCCN1CCOCC1 , I see its solubility thermodynamic listed as 66.1

Entry Cc1c(NC(=O)OC[C@@H]2COCCN2)cn2ncnc(Nc3ccc4c(cnn4Cc4cccc(F)c4)c3)c12 , solubility thermodynamic reported as 1.7

The measured solubility thermodynamic associated with COc1cc(C2CCNCC2)ccc1Nc1ncc(Cl)c(-c2cnc3ccccn23)n1 reads 44.7

response.value for CC1C(=O)Nc2ccccc2N1C(=O)c1ccccc1 (centres undefined) (field: solubility thermodynamic) = 40.7

Reported solubility thermodynamic for COc1cccc(C(=O)NCCN2CCC(Oc3ccc(Cl)c(Cl)c3)CC2)c1 was 9.5

solubility thermodynamic recorded for this compound, Nc1c2c(O)nc(O)cc2nn1-c1ccccc1 , is 178

Reported solubility thermodynamic for Cc1noc2cc(N3CCN(C(=O)[C@@H]4CCCC[C@H]4C(=O)NC4(C#N)CC4)[C@H](C)C3)ccc12 was 603

====

- ASSAY PROCEDURE: physchem
OUTCOME MEASURE: pKa
Respond with the number and no other words.

Solved entries (count: 5):
CCn1cc(C(=O)O)c(=O)c2cc(F)c(N3CCNC(C)C3)c(F)c21 (stereo unspecified) [LOMEFLOXACIN]	5.82
COc1c(N2CCNC(C)C2)c(F)cc2c(=O)c(C(=O)O)cn(C3CC3)c12 (stereo unspecified) [GATIFLOXACIN]	6.05
COc1ccc(COc2nc(Br)cnc2NS(=O)(=O)c2ccc(C)cc2)cc1OCCN(C)C	5.05
O=C(O)COc1ccc([N+](=O)[O-])cc1-c1ccccc1	2.7
CN1CCN(CC(=O)N2c3ccccc3C(=O)Nc3cccnc32)CC1 [PIRENZEPINE]	10.7

Proceed to the following item.
Form field pKa, entry Nc1ccc(S(=O)(=O)Nc2nccs2)cc1 [SULFATHIAZOLE] : 7.01

====

- ASSAY PROCEDURE: physchem
- STATED CONDITIONS: pH 7.4 buffer
OUTCOME MEASURE: log10(solubility thermodynamic) (log10 of the value in µM)
Values are log10 of solubility thermodynamic in µM.

Nc1ccccc1NC(=O)c1ccc(C2CCN(Cc3ccc(C(=O)NC4CC4)cc3)CC2)cc1	0.82
O=C(Nc1ccc(N2CCOCC2)nc1)c1nnc(Nc2ccccc2)o1	0.28
CC(C)Oc1ccc2c(=O)c(-c3ccccc3)coc2c1 [IPRIFLAVONE]	0.45
CN(C)C(=O)c1cc(-c2nc(N3CCOCC3)cc(C3(S(C)(=O)=O)CC3)n2)c2cc[nH]c2c1	2.00
Oc1cc(-c2ccccc2)nc2ccc(Cl)cc12	0.77

Cc1c[nH]c(/C=C2\C(=O)Nc3ccccc32)c1CCC(=O)O has a reported log10(solubility thermodynamic) of 2.65

The molecule identified as Cc1ccc(N2CC(COc3ccc(-c4noc(C)n4)cc3)C2)nn1 registered its log10(solubility thermodynamic) at 2.11

The molecule listed as COc1cc(N2CCCN(C(C)=O)CC2)ccc1Nc1ncc(Cl)c(-c2cnc3ccccn23)n1 has a reported log10(solubility thermodynamic) of 0.38

Recorded result, CCN(C(=O)Cc1ccc(S(C)(=O)=O)cc1)C1CCN(CCC(c2ccccc2)c2ccc(C)cc2)CC1 (centres undefined) , log10(solubility thermodynamic): 1.88

Reported log10(solubility thermodynamic) ( CN(C(=O)Cc1ccc(-n2cnnn2)cc1)[C@H]1CCN(Cc2ccc(C(F)(F)F)cc2)C[C@H]1F ) = 0.91

====

- ASSAY PROCEDURE: physchem
- STATED CONDITIONS: pH 7.4 buffer
OUTCOME MEASURE: solubility thermodynamic (µM)
// units = µM; emit number, no label

Examples with answers:
CC(C)Cn1c2ccccc2c2cc(C(=O)O)ccc21	219
COCCOc1cc2c(Oc3cnn(CC(=O)Nc4cccc(OC)c4)c3)ncnc2cc1OC	3.1
CNC(=O)c1ccc2c(=O)cc(-c3cccnc3)[nH]c2c1	309

Turning now to a further compound:
For record CC1(COc2cc(-c3cccc4c(=O)cc(N5CCOCC5)oc34)ccc2NC(=O)CN2CCOCC2)COC1 the listed solubility thermodynamic is 36.3

====

- ASSAY PROCEDURE: physchem
- STATED CONDITIONS: octan-1-ol/water, pH 7.4, LogD7.4
Please mark t if the recorded logD is equal to or greater than 2, and f if it falls below.

CS(=O)(=O)c1cccc(Nc2nccc(Nc3cccc4c3OCO4)n2)c1	t
C=CCNS(=O)(=O)c1ccc(NC(=O)[C@@](C)(O)C(F)(F)F)c(Cl)c1	t
Nc1c(C(=O)c2cccc(OC[C@H](O)CO)c2)cnn1-c1ccc(F)cc1	f
Cc1ccc2c(c1)c(-c1cc(C)nc3ccccc13)c(C)n2CC(=O)O	t
Cn1nc(C(C)(C)C)cc1NC(=O)Nc1ccc(Cl)cc1	t

Proceed to the following item.
Asked: Identify whether the reported logD of the following compound is 2 or greater: CCc1nc(N)nc(N)c1-c1ccc(Cl)cc1 [PYRIMETHAMINE]
Given back: t

====

Listed below: hepatocyte CLint values for each entry.
- ASSAY PROCEDURE: in vitro
- STATED CONDITIONS: hepatocytes
The reply should be a number in µL/min/1e6 cells, with the unit left off.

O=c1[nH]c2c(O)ccc(CCNCCS(=O)(=O)CCCOCCc3ccccc3)c2s1	91
O=c1[nH]c2c(O)ccc([C@@H](O)CNCCc3ccccc3CNCCc3ccccc3F)c2s1	107

Input Cc1nn(-c2ccc(F)cc2)c(NS(=O)(=O)c2ccc(C(F)(F)F)cc2)c1C(=O)N[C@@H](C)C(C)(C)C . Output hepatocyte CLint: 5.01

====

- ASSAY PROCEDURE: physchem
- STATED CONDITIONS: octan-1-ol/water, pH 7.4, LogD7.4
Output Yes for logD not less than 3; output No otherwise.

A selection of reference data follows.
CC(C)(C)c1cc(O)n2nc(N)nc2n1	No
Cn1c(=O)c2c(-c3ccc(S(C)(=O)=O)o3)n(Cc3ccnc4ccc(Cl)cc34)nc2n(CC2CC2)c1=O	No
COc1ccc(-c2ccccc2)cc1N1CC(=O)NS1(=O)=O	No

Asked: Please indicate if the recorded logD for Cc1cccc(Nc2nnc(C(=O)Nc3ccc(N4CCOCC4)nc3)o2)c1 meets or exceeds 3.
Given back: Yes

Asked: Item O=[N+]([O-])c1cccc2ccc(C(Cl)(Cl)Cl)nc12 with logD of 3 or above?
Given back: Yes

Asked: // inclusive: logD at least 3? input: COc1cc(C(=O)NS(=O)(=O)c2ccccc2C)ccc1Cc1cn(C)c2ccc(C(=O)NCCc3ccccc3)cc12
Given back: No

====

- ASSAY PROCEDURE: physchem
- STATED CONDITIONS: octan-1-ol/water, pH 7.4, LogD7.4
OUTCOME MEASURE: logD
Respond using a number only.

Field: example entries. Status: answers known.
CNc1cc(C(=O)Nc2ccc(N3CCOCC3)cc2)nc2c(N3CCN(C)CC3)cc(OC)cc12	2.93
CNC(=O)c1ccc(Nc2nccc(-c3cnc(C)n3C(C)C)n2)cc1F	2.95
Oc1c(I)cc(I)c2cccnc12	2.19
CS(=O)(=O)NCC(NC(=O)C1(N)CCN(c2ncnc3[nH]ccc23)CC1)c1ccc(Cl)cc1 (centres undefined)	2.1
Nc1ncc(-c2ccc(S(=O)(=O)N3CCOCC3)cc2)nc1C(=O)Nc1cccnc1	2.83
O=C(Nc1ccccc1)Nc1ccccc1C(=O)O	-0.12
CCc1nc2c(N)nc3ccccc3c2n1Cc1ccccc1	3.29
Cc1ccc(S(=O)(=O)Nc2c(C(=O)N[C@@H](C)C(C)(C)C)c(C)nn2C2CCN(CC(F)(F)F)CC2)cc1	1.08
O=c1[nH]n(C(c2ccccc2)c2ccncc2)c(=O)c2c(O)c3ccc(Cl)cc3nc12 (centres undefined)	1.1
NCC(O)(c1ccc(Cl)cc1)c1ccc(Cl)cc1	2.69

Form: compound = O=c1[nH]c2c(O)ccc([C@@H](O)CNCCc3ccc(CNCCc4c(Cl)cccc4Cl)cc3)c2s1 ; logD = 2.3

Recorded result, CC[C@H](c1ccc(C(=O)O)c(Oc2cccc(Cl)c2)c1)N1CCC[C@H](n2cc(C)c(=O)[nH]c2=O)C1 , logD: 0.22

Quick note, logD for CC(N)(COP(=O)(O)O)C(=O)O (centres undefined) landed at 2.5

The values you see were collected from ChEMBL document CHEMBL3301361.
